Please go through the items and note down their AR Agonist CV-1 Cells Efficacy.
- TARGET ENTITY: human AR (Homo sapiens, UniProt P10275)
- Construct: expressed in transfected cells; host or cells: CV-1 cells (African green monkey kidney fibroblasts)
- ASSAY PROCEDURE: cell-based
- Assay type: cell-based
Give bare numbers, in %.

1) CCC1CCN(C(C)=O)c2cc3[nH]c(=O)cc(C(F)(F)F)c3cc21 (racemic): 91

State the recorded AR Agonist CV-1 Cells Efficacy for every item in the following list.
1. CCC1(CC)CCc2cc3c(C(F)(F)F)c(F)c(=O)[nH]c3cc2N1
2. CN1c2cc3c(cc2CCC1(C)C)c(C(F)(F)F)c(F)c(=O)n3C

1. 18
2. 13

Working through the 2 molecules below one at a time, give AR Agonist CV-1 Cells Efficacy for each.
1. CC1=CC(C)(C)Nc2cc3[nH]c(=O)c(F)c(C(F)(F)F)c3cc21
2. CC1(C)CCc2cc3c(C(F)(F)F)c(F)c(=O)[nH]c3cc2N1

1: 16; 2: 39

---

- TARGET ENTITY: human AR (Homo sapiens)
- Construct: expressed in transfected cells; host or cells: CV-1 cells (African green monkey kidney fibroblasts)
- ASSAY PROCEDURE: cell-based
- Assay type: cell-based
- MEASUREMENT SETUP: antagonist mode, DHT at its EC50; % of maximal inhibition; na = not active
Give t when the value for AR Antagonist CV-1 Cells Efficacy is at least 80%. Give f when it is less.

Is AR Antagonist CV-1 Cells Efficacy at least 80%? Consider CCC1(CC)CCc2cc3c(C(F)(F)F)c(F)c(=O)[nH]c3cc2N1
f

---

- TARGET ENTITY: human AR (Homo sapiens, UniProt P10275)
- Sequence (P10275 1-920): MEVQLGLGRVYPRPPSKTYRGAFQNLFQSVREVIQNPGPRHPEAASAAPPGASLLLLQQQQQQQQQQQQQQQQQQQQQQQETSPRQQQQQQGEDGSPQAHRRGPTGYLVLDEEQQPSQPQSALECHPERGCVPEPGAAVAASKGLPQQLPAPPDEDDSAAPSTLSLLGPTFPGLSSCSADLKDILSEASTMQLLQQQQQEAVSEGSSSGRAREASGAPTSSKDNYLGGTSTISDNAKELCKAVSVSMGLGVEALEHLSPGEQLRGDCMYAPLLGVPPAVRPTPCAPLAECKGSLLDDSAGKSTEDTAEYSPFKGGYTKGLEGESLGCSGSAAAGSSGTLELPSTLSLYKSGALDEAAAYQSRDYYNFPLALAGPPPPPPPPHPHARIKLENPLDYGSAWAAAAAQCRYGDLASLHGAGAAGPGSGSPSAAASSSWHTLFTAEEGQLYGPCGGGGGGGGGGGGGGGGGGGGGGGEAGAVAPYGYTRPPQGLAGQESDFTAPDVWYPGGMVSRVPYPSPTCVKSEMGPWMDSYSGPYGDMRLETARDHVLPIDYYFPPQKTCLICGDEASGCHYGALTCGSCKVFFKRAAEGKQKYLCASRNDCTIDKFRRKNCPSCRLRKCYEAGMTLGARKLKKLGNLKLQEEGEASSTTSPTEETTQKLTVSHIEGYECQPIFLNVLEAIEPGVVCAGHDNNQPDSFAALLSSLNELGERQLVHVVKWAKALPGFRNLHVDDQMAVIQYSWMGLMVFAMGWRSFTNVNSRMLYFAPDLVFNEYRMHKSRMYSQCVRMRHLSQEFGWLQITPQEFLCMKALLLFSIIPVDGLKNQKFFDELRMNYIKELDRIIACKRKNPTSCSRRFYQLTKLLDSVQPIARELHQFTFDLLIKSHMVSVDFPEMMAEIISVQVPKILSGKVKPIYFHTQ
Would you kindly list pKi for each of these compounds?
Give bare numbers, as −log10 of the molar value.

As a guide, the following entries are already answered.
1) CC1(C)CCc2cc3c(C(F)F)c(F)c(=O)[nH]c3cc2N1: 7.14
2) CCC1CCN(C(C)=O)c2cc3[nH]c(=O)cc(C(F)(F)F)c3cc21 (racemic): 7.06
3) Cn1c(=O)cc(C(F)(F)F)c2cc3c(cc21)N(O)C(C)(C)CC3: 7.13
4) Cn1c(=O)c(F)c(C(F)(F)F)c2cc3c(cc21)N1CCCC1(C)CC3 (racemic): 7.03
5) CC12CCCN1c1cc3[nH]c(=O)c(F)c(C(F)(F)F)c3cc1CC2 (racemic): 7.96

Okay, here is my list. What is pKi for each of these?
1. Cc1c2c(cc3c(C(F)(F)F)c(F)c(=O)[nH]c13)C(C)CC(C)(C)N2 (centres unmarked)
2. CCC1CCN([N+](=O)[O-])c2cc3[nH]c(=O)cc(C(F)(F)F)c3cc21 (racemic)
3. CN1c2cc3c(cc2CCC1(C)C)c(C(F)(F)F)c(F)c(=O)n3C

1: 6.97; 2: 6.87; 3: 7.74

---

- TARGET ENTITY: human AR (Homo sapiens, UniProt P10275)
- Construct: expressed in transfected cells; host or cells: CV-1 cells (African green monkey kidney fibroblasts)
- Sequence (P10275 1-920): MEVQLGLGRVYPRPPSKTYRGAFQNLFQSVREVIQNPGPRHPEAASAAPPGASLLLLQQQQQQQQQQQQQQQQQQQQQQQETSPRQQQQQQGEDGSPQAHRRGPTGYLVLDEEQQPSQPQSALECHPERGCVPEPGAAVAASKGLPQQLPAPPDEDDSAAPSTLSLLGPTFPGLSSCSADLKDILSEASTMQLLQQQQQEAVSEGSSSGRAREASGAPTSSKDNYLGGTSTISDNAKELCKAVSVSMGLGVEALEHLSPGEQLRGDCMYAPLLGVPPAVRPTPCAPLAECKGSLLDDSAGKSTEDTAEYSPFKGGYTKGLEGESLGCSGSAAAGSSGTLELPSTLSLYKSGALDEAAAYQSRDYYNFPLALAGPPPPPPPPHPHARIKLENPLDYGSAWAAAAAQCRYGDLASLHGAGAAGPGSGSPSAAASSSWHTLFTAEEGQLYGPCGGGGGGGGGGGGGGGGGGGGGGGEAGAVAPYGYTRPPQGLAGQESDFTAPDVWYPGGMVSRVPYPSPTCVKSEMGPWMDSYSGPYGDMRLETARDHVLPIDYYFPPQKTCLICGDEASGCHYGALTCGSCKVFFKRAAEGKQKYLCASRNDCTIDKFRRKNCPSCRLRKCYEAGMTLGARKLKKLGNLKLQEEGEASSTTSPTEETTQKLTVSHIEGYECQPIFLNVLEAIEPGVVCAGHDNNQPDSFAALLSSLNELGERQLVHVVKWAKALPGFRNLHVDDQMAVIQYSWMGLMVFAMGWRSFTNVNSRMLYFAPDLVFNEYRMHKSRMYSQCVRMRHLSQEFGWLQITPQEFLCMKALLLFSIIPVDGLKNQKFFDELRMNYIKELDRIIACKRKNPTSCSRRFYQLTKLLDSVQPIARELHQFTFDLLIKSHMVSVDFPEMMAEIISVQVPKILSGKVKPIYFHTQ
- ASSAY PROCEDURE: cell-based
- Assay type: cell-based
- MEASUREMENT SETUP: antagonist mode, DHT at its EC50; % of maximal inhibition; na = not active
Please use Criterion met whenever AR Antagonist CV-1 Cells Efficacy is not below 50%, and Criterion not met whenever it is.

1) O=c1cc(C(F)(F)F)c2cc3c4c(c2[nH]1)CCCN4CCC3 [Compound 12]: Criterion met
2) CC1CC(C)(C)Nc2cc3[nH]c(=O)c(F)c(C(F)(F)F)c3cc21 (stereo not shown) [Compound 112]: Criterion not met
3) CC1=CC(C)(C)Nc2cc3[nH]c(=O)c(F)c(C(F)(F)F)c3cc21 [Compound 111]: Criterion met
4) Cn1c(=O)cc(C(F)(F)F)c2cc3c4c(c21)CCCN4CCC3 [Compound 13]: Criterion met
5) CC1(C)CCc2cc3c(C(F)(F)F)c([N+](=O)[O-])c(=O)[nH]c3c([N+](=O)[O-])c2N1 [Compound 126]: Criterion not met

Determine whether this molecule has AR Antagonist CV-1 Cells Efficacy no lower than 50%: Cc1c2c(cc3c(C(F)(F)F)c(F)c(=O)[nH]c13)C(C)CC(C)(C)N2C (stereo not shown) [Compound 117]
Criterion met

Please tell me: is the molecule Cc1c2c(cc3c(C(F)(F)F)c(F)c(=O)[nH]c13)C(C)CC(C)(C)N2 (stereo not shown) [Compound 115] at or over 50% in terms of AR Antagonist CV-1 Cells Efficacy?
Criterion met

Textbook exercise: given the entry Cc1c2c(cc3c(C(F)(F)F)c(F)c(=O)n(C)c13)C(C)CC(C)(C)N2 (stereo not shown) [Compound 116] , state whether its AR Antagonist CV-1 Cells Efficacy is greater than or equal to 50%.
Criterion not met

Is AR Antagonist CV-1 Cells Efficacy for Cn1c(=O)cc(C(F)(F)F)c2cc3c(cc21)N(O)C(C)(C)CC3 [Compound 119] at or above 50%?
Criterion not met

Does the reported AR Antagonist CV-1 Cells Efficacy for CC1(C)CCc2cc3c(C(F)F)c(F)c(=O)[nH]c3cc2N1 [Compound 106] fall at or above the 50% mark?
Criterion met

# bool: AR Antagonist CV-1 Cells Efficacy of CC12CCCN1c1cc3[nH]c(=O)c(F)c(C(F)(F)F)c3cc1CC2 (racemic) [Compound 102] >= 50%
Criterion met

Is AR Antagonist CV-1 Cells Efficacy for CC1(C)CCc2cc3c(C(F)(F)F)cc(=O)[nH]c3c([N+](=O)[O-])c2N1 [Compound 125] at or above 50%?
Criterion met

Does the reported AR Antagonist CV-1 Cells Efficacy for CC1(C)CCc2cc3c(C(F)(F)F)cc(=O)[nH]c3cc2N1O [Compound 118] fall at or above the 50% mark?
Criterion met

Kindly determine if AR Antagonist CV-1 Cells Efficacy recorded for CC1=CC(C)(C)Nc2c1cc1c(C(F)(F)F)c(F)c(=O)[nH]c1c2C [Compound 114] is above or exactly 50%.
Criterion met

Answer whether AR Antagonist CV-1 Cells Efficacy of CN1c2cc3c(cc2CCC1(C)C)c(C(F)(F)F)c(F)c(=O)n3C [Compound 109] is greater than or equal to 50%.
Criterion met

Determine whether measured AR Antagonist CV-1 Cells Efficacy meets or exceeds 50% for CC1CC(C)(C)n2oc(=O)c3c4[nH]c(=O)cc(C(F)(F)F)c4cc1c32 (stereo not shown) [Compound 113]
Criterion not met
